- measurement-notes: Bioavailability in Sprague-Dawley rat at 1 mg/kg, iv by LC-MS analysis
- Format: ADME, organism-based
- test-context: in vivo
measure: bioavailability (%)
Field: numeric (%). Do not append units.

Q. # input compound: CN1CCN(c2ccc(-c3cc4c(N5CCN(C(=O)Nc6ccc(Cl)c(C(F)(F)F)c6)CC5)ncnc4s3)cc2)CC1 ; wanted: its bioavailability
A. 30.9

---

Reported pIC50, Platelet-derived growth factor receptor beta (Homo sapiens, UniProt P09619).
Just so you know, pIC50 here is -log10 of the concentration in molar units; reply with that number alone.

[
  {
    "compound": "CNC(=O)c1cc(COc2nnc(Nc3ccc(Cl)cc3)c3ccoc23)ccn1 [TELATINIB]",
    "recorded-result": 7.82
  }
]

Then this compound:
Q. pIC50 lookup needed for COc1cc2nccc(Oc3ccc(NC(=O)NC4CC4)c(Cl)c3)c2cc1C(N)=O [LENVATINIB] , thanks.
A. 7.41

Cited source for all entries: ChEMBL document CHEMBL4837240
